Taken from patent US8362000B2.

Target: purified wild type MGL (wt-MGLL 6H-11-313) (Homo sapiens)
Sequence (Q99685 1-303): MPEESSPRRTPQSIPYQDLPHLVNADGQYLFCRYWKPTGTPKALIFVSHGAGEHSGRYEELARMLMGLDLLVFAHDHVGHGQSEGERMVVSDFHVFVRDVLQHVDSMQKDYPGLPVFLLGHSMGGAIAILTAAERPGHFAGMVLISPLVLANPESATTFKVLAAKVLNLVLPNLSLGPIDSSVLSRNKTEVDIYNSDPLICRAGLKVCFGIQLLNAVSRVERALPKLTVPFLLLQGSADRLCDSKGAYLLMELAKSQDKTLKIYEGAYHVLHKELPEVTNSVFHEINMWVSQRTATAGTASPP
Property Name: IC50 (nM)

O=C(c1ccc2nc(-c3ccccc3)oc2c1)N1CCN(C2CN(C(=O)c3cscn3)C2)CC1 : 1720

(A) O=C(c1ccccc1)N1CCN(C2CN(C(=O)c3ccc(Oc4ccccc4Cl)nc3)C2)CC1
(B) Cn1nc(-c2cccc(F)c2)c2cc(C(=O)N3CC(N4CCN(C(=O)c5nccs5)CC4)C3)ccc21
(C) Cc1cc2c(ccn2-c2ccc(F)cc2)cc1C(=O)N1CC(N2CCN(C(=O)c3nccs3)CC2)C1
Exam item: list the entries in increasing order of IC50. Please express your ranking as an ordered list of the labels.
B, C, A
(B: 59 nM, C: 115 nM, A: 2190 nM)
